assay.system: h-TGR5 (Homo sapiens)
Sequence (Q8TDU6 whole entry): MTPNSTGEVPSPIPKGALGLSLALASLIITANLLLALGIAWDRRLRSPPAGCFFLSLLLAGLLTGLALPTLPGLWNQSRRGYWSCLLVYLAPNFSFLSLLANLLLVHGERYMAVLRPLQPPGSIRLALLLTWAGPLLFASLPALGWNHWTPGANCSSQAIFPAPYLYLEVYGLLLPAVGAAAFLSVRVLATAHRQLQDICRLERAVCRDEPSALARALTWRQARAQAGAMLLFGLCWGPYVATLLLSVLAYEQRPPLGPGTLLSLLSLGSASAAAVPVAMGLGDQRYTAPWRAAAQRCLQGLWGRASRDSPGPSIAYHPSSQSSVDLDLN
assay.details: TGR5 cAMP Assay using Cisbio cAMP Dynamic 2 htrf assay kit
particulars: hTGR5CRE-luc HEK 293 cells
pEC50: −log10 of the molar value.
The reader will find reported pEC50 values listed item by item below.

Please give the measured pEC50 for this compound: COc1cc(C(C)(C)c2cnc(SCc3c(F)cc(S(=O)(=O)N(CCC[N+](C)(C)C)[C@@H](CO)C(=O)O)cc3F)n2-c2ccc(F)cc2)ccc1Cl [Compound 14t]
> 7.00

Item under review: COc1cc(C(C)(C)c2cnc(SCc3c(F)cc(C(=O)NCC[N+]4(C)CCOCC4)cc3Cl)n2-c2ccc(F)cc2)ccc1Cl . Reported pEC50?
5.00 to 6.00

Okay, now this compound:
Record request: pEC50 value, item COc1cc(C(C)(C)c2cnc(SCc3c(F)cc(C(=O)NCC4(O)CC[N+](C)(C)CC4)cc3Cl)n2-c2ccc(F)cc2)ccc1Cl
> 7.00

Cited source for all entries: patent US8846739B2
